Cited source for all entries: the supplement of paper PMC9112550

Test system: Escherichia coli TOP10
Assay: shrunken log2 fold change of peptide-encoding DNA abundance (4.5 h post-induction vs induction); higher = less antimicrobial activity (less host growth inhibition)
Conditions: time post-induction: 4.5 h; library: site-saturation at positions 5, 18, 19, 20
shrunken log2 fold change vs -0.1: at or above is fulfilled, below is not fulfilled.

Previously resolved entries follow.
macromolecule_sequence=RRIRPRPPRLPRPRPRPKNIPRP category="not fulfilled"
macromolecule_sequence=RRIRTRPPRLPRPRPRPYDNPRP category="not fulfilled"
macromolecule_sequence=RRIRWRPPRLPRPRPRPDLKPRP category=fulfilled
macromolecule_sequence=RRIRCRPPRLPRPRPRPLWPPRP category=fulfilled
macromolecule_sequence=RRIRTRPPRLPRPRPRPCPPPRP category="not fulfilled"
macromolecule_sequence=RRIRGRPPRLPRPRPRPIKQPRP category=fulfilled

Given the entry RRIRGRPPRLPRPRPRPGRIPRP , answer whether its shrunken log2 fold change meets or surpasses -0.1.
fulfilled

Does RRIRQRPPRLPRPRPRPGQQPRP have a reported shrunken log2 fold change of at least -0.1?
fulfilled

----------
Below: a set of entries, each annotated with reported shrunken log2 fold change.
System: Escherichia coli TOP10
Test: shrunken log2 fold change of peptide-encoding DNA abundance (4.5 h post-induction vs induction); higher = less antimicrobial activity (less host growth inhibition)
Conditions: time post-induction: 4.5 h; library: site-saturation at positions 5, 18, 19, 20

Reference set, count: 6
macromolecule_sequence=RRIRVRPPRLPRPRPRPWCHPRP metric="shrunken log2 fold change" test_value=-0.291
macromolecule_sequence=RRIRVRPPRLPRPRPRPTRIPRP metric="shrunken log2 fold change" test_value=0.108
macromolecule_sequence=RRIRERPPRLPRPRPRPEKHPRP metric="shrunken log2 fold change" test_value=-0.13
macromolecule_sequence=RRIRSRPPRLPRPRPRPCLWPRP metric="shrunken log2 fold change" test_value=0.0729
macromolecule_sequence=RRIRERPPRLPRPRPRPELTPRP metric="shrunken log2 fold change" test_value=0.534
macromolecule_sequence=RRIRTRPPRLPRPRPRPRGTPRP metric="shrunken log2 fold change" test_value=0.197

Lab note: need shrunken log2 fold change for RRIRGRPPRLPRPRPRPAHSPRP on Escherichia coli TOP10, anyone have it?
0.0755

Lab request: please report shrunken log2 fold change under test system Escherichia coli TOP10 for RRIRRRPPRLPRPRPRPILQPRP
1.83

Please state recorded shrunken log2 fold change (tested on Escherichia coli TOP10) of RRIRERPPRLPRPRPRPDPWPRP
-0.12

----------
Tested on: Escherichia coli TOP10
Assay: shrunken log2 fold change of peptide-encoding DNA abundance (4.5 h post-induction vs induction); higher = less antimicrobial activity (less host growth inhibition)
Settings: time post-induction: 4.5 h; library: site-saturation at positions 5, 18, 19, 20
Entry class follows shrunken log2 fold change: lower range: < -0.2; middle range: ≥ -0.2 and < 0.03; upper range: ≥ 0.03

Some solved cases for reference:
macromolecule_sequence=RRIRYRPPRLPRPRPRPKPNPRP category="middle range"
macromolecule_sequence=RRIRPRPPRLPRPRPRPDTRPRP category="middle range"
macromolecule_sequence=RRIRDRPPRLPRPRPRPKHIPRP category="lower range"
macromolecule_sequence=RRIRERPPRLPRPRPRPSFDPRP category="lower range"
macromolecule_sequence=RRIRRRPPRLPRPRPRPPTEPRP category="upper range"
macromolecule_sequence=RRIRCRPPRLPRPRPRPNTRPRP category="lower range"

Lab note: sort RRIRERPPRLPRPRPRPWRKPRP into the matching shrunken log2 fold change band.
middle range

// return the class label for RRIRERPPRLPRPRPRPEEWPRP
middle range

Into which bin does this sequence go? RRIRTRPPRLPRPRPRPGTLPRP
upper range

----------
System: Escherichia coli TOP10
Test: shrunken log2 fold change of peptide-encoding DNA abundance (4.5 h post-induction vs induction); higher = less antimicrobial activity (less host growth inhibition)
Conditions: time post-induction: 4.5 h; library: site-saturation at positions 5, 18, 19, 20
METRIC: shrunken log2 fold change
# print the numeric value only

// returns reported shrunken log2 fold change for input RRIRMRPPRLPRPRPRPGCAPRP
1.09

Fill blank: measured shrunken log2 fold change of the sequence RRIRHRPPRLPRPRPRPLGSPRP is ____.
0.0703

Look up shrunken log2 fold change for this sequence: RRIRVRPPRLPRPRPRPNDEPRP
-0.352

----------
System: Escherichia coli TOP10
Assay: shrunken log2 fold change of peptide-encoding DNA abundance (4.5 h post-induction vs induction); higher = less antimicrobial activity (less host growth inhibition)
Conditions: time post-induction: 4.5 h; library: site-saturation at positions 5, 18, 19, 20
Classify as follows. Reported shrunken log2 fold change greater than or equal to -0.05: 1 (yes). Reported shrunken log2 fold change below: 0 (no).

Solved entries (count: 4):
macromolecule_sequence=RRIRVRPPRLPRPRPRPHGYPRP category="0 (no)"
macromolecule_sequence=RRIRQRPPRLPRPRPRPDSWPRP category="1 (yes)"
macromolecule_sequence=RRIRSRPPRLPRPRPRPEIFPRP category="0 (no)"
macromolecule_sequence=RRIRLRPPRLPRPRPRPETAPRP category="1 (yes)"

Could you tell me if the measured shrunken log2 fold change of RRIRRRPPRLPRPRPRPMANPRP reaches -0.05 or more?
1 (yes)

Textbook exercise: given the entry RRIRPRPPRLPRPRPRPCPWPRP , state whether its shrunken log2 fold change is greater than or equal to -0.05.
1 (yes)

Quick check, shrunken log2 fold change >= -0.05? RRIRSRPPRLPRPRPRPASDPRP
1 (yes)

----------
Tested on: Escherichia coli TOP10
Assay: shrunken log2 fold change of peptide-encoding DNA abundance (4.5 h post-induction vs induction); higher = less antimicrobial activity (less host growth inhibition)
Conditions: time post-induction: 4.5 h; library: site-saturation at positions 5, 18, 19, 20
I would appreciate it if you labelled entries T when shrunken log2 fold change is 0.3 or higher, otherwise F.

Use these answered entries as a reference point.
macromolecule_sequence=RRIRCRPPRLPRPRPRPPTEPRP category=T
macromolecule_sequence=RRIRHRPPRLPRPRPRPLLTPRP category=F
macromolecule_sequence=RRIRWRPPRLPRPRPRPSATPRP category=T
macromolecule_sequence=RRIRSRPPRLPRPRPRPSETPRP category=F
macromolecule_sequence=RRIRVRPPRLPRPRPRPNWVPRP category=F

Check this sequence for shrunken log2 fold change at or above 0.3: RRIRPRPPRLPRPRPRPEVFPRP
F

Would you say RRIRHRPPRLPRPRPRPQTWPRP shows shrunken log2 fold change at minimum 0.3?
F

----------
Tested on: Escherichia coli TOP10
Experiment: shrunken log2 fold change of peptide-encoding DNA abundance (4.5 h post-induction vs induction); higher = less antimicrobial activity (less host growth inhibition)
Conditions: time post-induction: 4.5 h; library: site-saturation at positions 5, 18, 19, 20
Measured shrunken log2 fold change, listed per entry for reference.
A bare number is all that is needed in reply.

Some sequences with recorded shrunken log2 fold change:
macromolecule_sequence=RRIRPRPPRLPRPRPRPKINPRP metric="shrunken log2 fold change" test_value=-0.32
macromolecule_sequence=RRIRARPPRLPRPRPRPEDCPRP metric="shrunken log2 fold change" test_value=0.243
macromolecule_sequence=RRIRSRPPRLPRPRPRPPQLPRP metric="shrunken log2 fold change" test_value=0.209
macromolecule_sequence=RRIRGRPPRLPRPRPRPICDPRP metric="shrunken log2 fold change" test_value=0.717
macromolecule_sequence=RRIRPRPPRLPRPRPRPSFTPRP metric="shrunken log2 fold change" test_value=-0.213
macromolecule_sequence=RRIRLRPPRLPRPRPRPPGMPRP metric="shrunken log2 fold change" test_value=0.197

If you can, please state the reported shrunken log2 fold change value of RRIRGRPPRLPRPRPRPLSRPRP .
1.17

Query: shrunken log2 fold change; subject: RRIRPRPPRLPRPRPRPQDLPRP
-0.13

----------
System: Escherichia coli TOP10;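 note: peptides expressed intracellularly from a pBAD plasmid library in pooled LB shake-flask culture, induced with 0.3% L-arabinose, DNA abundance read by NGS, three biological replicates, DESeq2 with apeglm shrinkage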
Test: shrunken log2 fold change of peptide-encoding DNA abundance (4.5 h post-induction vs induction); higher = less antimicrobial activity (less host growth inhibition)
Conditions: time post-induction: 4.5 h; library: site-saturation at positions 5, 18, 19, 20
METRIC: shrunken log2 fold change
API doc: respond with a numeric literal and nothing else, no unit.

Field: example entries. Status: answers known.
macromolecule_sequence=RRIRGRPPRLPRPRPRPYYHPRP tested_target="Escherichia coli TOP10" metric="shrunken log2 fold change" test_value=-0.204
macromolecule_sequence=RRIRCRPPRLPRPRPRPMPCPRP tested_target="Escherichia coli TOP10" metric="shrunken log2 fold change" test_value=-0.688
macromolecule_sequence=RRIRNRPPRLPRPRPRPGKEPRP tested_target="Escherichia coli TOP10" metric="shrunken log2 fold change" test_value=-0.311
macromolecule_sequence=RRIRQRPPRLPRPRPRPSCPPRP tested_target="Escherichia coli TOP10" metric="shrunken log2 fold change" test_value=-0.037
macromolecule_sequence=RRIRARPPRLPRPRPRPLYHPRP tested_target="Escherichia coli TOP10" metric="shrunken log2 fold change" test_value=0.149

What shrunken log2 fold change value was documented for this sequence, RRIRRRPPRLPRPRPRPPDLPRP ?
0.66

Consider the sequence RRIRYRPPRLPRPRPRPKYGPRP and give its measured shrunken log2 fold change.
-0.176

What value of shrunken log2 fold change has been recorded for this entry: RRIRVRPPRLPRPRPRPWRCPRP
-0.0179

Would you mind telling me what shrunken log2 fold change value was observed for RRIRARPPRLPRPRPRPITHPRP ?
-0.045

Given RRIRLRPPRLPRPRPRPDSFPRP , state its recorded shrunken log2 fold change.
-0.0169
